These measurements were taken from paper PMC11480844.

Here the recorded ratio to parent is given for each entry.
B1: H2-Kb / Ed40 (parent complex)
chain 1: GDSVTQTEGPVTVSESESLIINCTYSATSIAYPNLFWYVRYPGEGLQLLLKVITAGQKGSSRGFEATYNKETTSFHLQKASVQESDSAVYYCALGDGYTGNYKYVFGAGTRLKVIA
chain 2: DSGVVQSPRHIIKEKGGRSVLTCIPISGHSNVVWYQQTLGKELKFLIQHYEKVERDKGFLPSRFSVQQFDDYHSEMNMSALELEDSAMYFCASSGASAETLYFGSGTRLTVL
chain 3: not shown
chain 4: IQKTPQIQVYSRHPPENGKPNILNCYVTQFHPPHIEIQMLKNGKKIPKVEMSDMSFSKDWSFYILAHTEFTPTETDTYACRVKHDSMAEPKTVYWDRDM
chain 5: SIINFEKL

Variants of: B1
Assay: % of reporter cells activated (NFAT-GFP), raw; note: test concentration or dose not given here
Just the number, please, no unit attached.

Please review the entries below; each comes with its answer.
# change, ratio to parent
measured = [
    ("chain 5 I2K", 0.968),
    ("chain 5 E6I", 0.00278),
    ("chain 5 I3E", 0.545),
    ("chain 5 I3A", 0.28),
    ("chain 5 E6D", 0.844),
    ("chain 5 N4F", 0.00938),
    ("chain 5 L8V", 0.831),
    ("chain 5 S1W", 0.335),
]

Ask: // ratio to parent lookup, key: chain 5 N4T
Reply: 0.00333

Ask: Any idea what ratio to parent was measured for chain 5 L8M ?
Reply: 0.897

Ask: Please report the recorded ratio to parent for chain 5 N4Q .
Reply: 0.00152
